- Assayed System: TrkB (Homo sapiens (Human), UniProt Q16620 32-430)
- Sequence (Q16620 32-430 limits assumed): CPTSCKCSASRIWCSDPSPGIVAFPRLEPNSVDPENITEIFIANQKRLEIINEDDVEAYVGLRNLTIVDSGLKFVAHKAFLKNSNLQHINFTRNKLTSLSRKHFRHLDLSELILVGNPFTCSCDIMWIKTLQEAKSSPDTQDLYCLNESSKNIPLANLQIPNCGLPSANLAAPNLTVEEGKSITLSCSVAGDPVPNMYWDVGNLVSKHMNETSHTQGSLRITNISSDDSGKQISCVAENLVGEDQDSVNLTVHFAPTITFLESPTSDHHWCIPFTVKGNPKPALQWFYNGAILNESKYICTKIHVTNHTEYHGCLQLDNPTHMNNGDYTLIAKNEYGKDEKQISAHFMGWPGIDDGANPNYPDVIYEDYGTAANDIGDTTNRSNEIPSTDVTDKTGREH
- Test Protocol: koff of Fab at 25 C; T1/2=Log2/koff
Value Kind: T1/2
# output: numeric value plus its unit

Enquiry: Entry 4-B2 (Fab, V domains shown, Fab) VH: QVQLVQSGAEVKKPGASVKVSCKASGYTFTNYVILWVRQAPGQGLEWMGYINPYNDGTKYNEKFKGRVTMTRDTSTSTVYMELSSLRSEDTAVYYCARLLKYRRFRYYAIDYWGQGTTVTVSS VL: DIQMTQSPSSLSASVGDRVTITCRASENVYSNLAWYQQKPGKAPKLLIYAASNLQSGVPSRFSGSGSGTDFTFTISSLQPEDIATYYCQHFWGSPFTFGQGTKLEIK has what T1/2?
Return: 1.33 min

Enquiry: Entry 4-F10 (Fab, V domains shown, Fab) VH: QVQLVQSGAEVKKPGASVKVSCKASGYTFTNYVILWVRQAPGQGLEWMGYINPYNDGTKYNEKFKGRVTMTRDTSTSTVYMELSSLRSEDTAVYYCARLLKYRRFSYYAIDYWGQGTTVTVSS VL: DIQMTQSPSSLSASVGDRVTITCRASENVYSNLAWYQQKPGKAPKLLIYAASNLQSGVPSRFSGSGSGTDFTFTISSLQPEDIATYYCQQFWYSPFTFGQGTKLEIK has what T1/2?
Return: 1.03 min

Enquiry: Entry 5-B8 (Fab, V domains shown, Fab) VH: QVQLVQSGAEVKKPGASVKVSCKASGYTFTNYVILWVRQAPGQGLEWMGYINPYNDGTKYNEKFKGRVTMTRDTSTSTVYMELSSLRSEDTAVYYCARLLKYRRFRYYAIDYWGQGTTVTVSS VL: DIQMTQSPSSLSASVGDRVTITCRASENVYSNLAWYQQKPGKAPKLLIYAASNLQSGVPSRFSGSGSGTDFTFTISSLQPEDIATYYCQQFWYSPFTFGQGTKLEIK has what T1/2?
Return: 1.82 min

Enquiry: Entry 1-A6 (Fab, V domains shown, Fab) VH: QVQLVQSGAEVKKPGASVKVSCKASGYTFTNYVILWVRQAPGQGLEWMGYINPYNDGTKYNEKFKGRVTMTRDTSTSTVYMELSSLRSEDTAVYYCARLLKYRRHSYYAIDYWGQGTTVTVSS VL: DIQMTQSPSSLSASVGDRVTITCRASENVYSNLAWYQQKPGKAPKLLIYAASNLQSGVPSRFSGSGSGTDFTFTISSLQPEDIATYYCQHFWKSPFTFGQGTKLEIK has what T1/2?
Return: 0.42 min

Enquiry: Entry 12-D8 (Fab, V domains shown, Fab) VH: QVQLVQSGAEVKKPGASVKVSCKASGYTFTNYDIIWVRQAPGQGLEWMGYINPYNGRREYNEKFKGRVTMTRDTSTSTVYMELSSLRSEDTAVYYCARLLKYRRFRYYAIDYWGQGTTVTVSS VL: DIQMTQSPSSLSASVGDRVTITCRASENVYSNTAWYQQKPGKAPKLLIYAASNLQSGVPSRFSGSGSGTDYTFTISSLQPEDIATYYCQHFWGSPFTFGQGTKLEIK has what T1/2?
Return: 10 min

Enquiry: Entry 10-C10 (Fab, V domains shown, Fab) VH: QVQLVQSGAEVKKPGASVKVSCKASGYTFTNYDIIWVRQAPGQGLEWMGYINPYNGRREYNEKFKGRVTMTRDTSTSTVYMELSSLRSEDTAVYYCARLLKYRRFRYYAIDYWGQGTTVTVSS VL: DIQMTQSPSSLSASVGDRVTITCRASENVYRNLAWYQQKPGKAPKLLIYAASNLQSGVPSRFSGSGSGTDFTFTISSLQPEDIATYYCQHFVYSPFTFGQGTKLEIK has what T1/2?
Return: 4.3 min

Enquiry: Entry 8-B2 (Fab, V domains shown, Fab) VH: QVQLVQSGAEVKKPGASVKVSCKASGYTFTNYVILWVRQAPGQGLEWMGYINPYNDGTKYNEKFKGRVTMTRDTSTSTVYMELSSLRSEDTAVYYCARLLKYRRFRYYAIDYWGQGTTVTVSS VL: DIQMTQSPSSLSASVGDRVTITCRASENVYSNLAWYQQKPGKAPKLLIYAASNLQSGVPSRFSGSGSGTDFTFTISSLQPEDIATYYCQHFYYSPFTFGQGTKLEIK has what T1/2?
Return: 1.46 min

Enquiry: Entry 2-F10 (Fab, V domains shown, Fab) VH: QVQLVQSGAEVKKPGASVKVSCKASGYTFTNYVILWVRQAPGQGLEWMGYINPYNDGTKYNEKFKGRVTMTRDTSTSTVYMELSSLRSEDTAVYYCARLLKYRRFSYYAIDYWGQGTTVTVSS VL: DIQMTQSPSSLSASVGDRVTITCRASENVYSNLAWYQQKPGKAPKLLIYAASNLQSGVPSRFSGSGSGTDFTFTISSLQPEDIATYYCQVFWYSPFTFGQGTKLEIK has what T1/2?
Return: 0.48 min

Enquiry: Entry 13-B3 (Fab, V domains shown, Fab) VH: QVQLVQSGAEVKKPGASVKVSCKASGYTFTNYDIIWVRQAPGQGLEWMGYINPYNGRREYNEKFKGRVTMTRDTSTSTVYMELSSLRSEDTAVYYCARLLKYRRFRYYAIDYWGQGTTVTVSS VL: DIQMTQSPSSLSASVGDRVTITCRASENVYNNLAWYQQKPGKAPKLLIYAASNLQSGVPSRFSGSGSGTDYTFTISSLQPEDIATYYCQHFWGSPFTFGQGTKLEIK has what T1/2?
Return: 13 min

Enquiry: Entry 3-F10 (Fab, V domains shown, Fab) VH: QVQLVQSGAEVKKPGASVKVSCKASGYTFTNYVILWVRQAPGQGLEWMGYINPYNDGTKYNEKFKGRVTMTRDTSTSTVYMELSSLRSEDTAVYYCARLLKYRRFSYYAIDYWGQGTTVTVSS VL: DIQMTQSPSSLSASVGDRVTITCRASENVYSNLAWYQQKPGKAPKLLIYAASNLQSGVPSRFSGSGSGTDFTFTISSLQPEDIATYYCQHFWYSPFKFGQGTKLEIK has what T1/2?
Return: 0.79 min
